Would you mind telling me the reported pKi of each entry?
- target-of-assay: murine QC (mQC) (Mus musculus, UniProt Q9CYK2)
- Sequence (Q9CYK2 36-362): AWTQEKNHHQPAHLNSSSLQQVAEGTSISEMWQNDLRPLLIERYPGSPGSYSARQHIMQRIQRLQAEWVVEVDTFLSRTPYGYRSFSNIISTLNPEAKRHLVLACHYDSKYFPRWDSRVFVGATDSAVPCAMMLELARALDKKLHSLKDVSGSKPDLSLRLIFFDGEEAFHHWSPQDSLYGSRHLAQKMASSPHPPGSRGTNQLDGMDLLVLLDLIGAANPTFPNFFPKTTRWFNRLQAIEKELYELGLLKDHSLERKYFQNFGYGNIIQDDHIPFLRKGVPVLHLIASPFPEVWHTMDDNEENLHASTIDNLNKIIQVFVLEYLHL
- procedure-text: Ki-values of selected inhibitors for murine QC
- condition: murine glutaminyl cyclase
A value of pKi is the negative decimal logarithm of a concentration given in moles per litre.

So what's the measured pKi for this one? Cc1cc(C)c(N/C(=N/C#N)NCCCn2cncc2C)c(C)c1
7.29

So what's the measured pKi for this one? COc1ccc(NC(=S)NCCCn2ccnc2)cc1OC
6.76
